Biological target: SRM (Homo sapiens, UniProt Q9H3Y6)
Construct: purchased Carna Biosciences
Sequence (Q9H3Y6 whole entry): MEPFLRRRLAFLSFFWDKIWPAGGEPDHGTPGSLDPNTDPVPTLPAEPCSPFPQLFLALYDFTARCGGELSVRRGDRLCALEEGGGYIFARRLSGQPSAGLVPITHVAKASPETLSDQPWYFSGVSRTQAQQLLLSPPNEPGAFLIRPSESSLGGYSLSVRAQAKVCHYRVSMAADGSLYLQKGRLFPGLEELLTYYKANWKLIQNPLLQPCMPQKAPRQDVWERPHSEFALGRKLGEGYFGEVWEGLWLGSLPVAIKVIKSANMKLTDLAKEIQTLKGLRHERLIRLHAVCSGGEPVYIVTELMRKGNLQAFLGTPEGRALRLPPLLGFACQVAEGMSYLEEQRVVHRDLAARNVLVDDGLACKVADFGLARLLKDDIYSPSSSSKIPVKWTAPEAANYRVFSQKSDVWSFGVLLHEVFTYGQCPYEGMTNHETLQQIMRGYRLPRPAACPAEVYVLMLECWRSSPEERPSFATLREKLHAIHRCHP
Assay: Off-chip Mobility Shift Assay (MSA) kinase inhibition
Type: biochemical
Conditions: inhibitor concentration 0.1 μM
Procedure: Off-chip Mobility Shift Assay (MSA) by Cama Biosciences, Inc (Natick, Mass.) a used for measuring the kinase activity and inhibition. • 1) The 5 μL of x4 compound solution, 5 μL of x4 Substrate/ATP/Metal solution, and 10 μL of x2 kinase solution were prepared with assay buffer (20 mM HEPES, 0.01% Triton X100, 2 mM DTT, pH 7.5) and mixed and incubated in a well of polypropylene 384 well microplate for 1 or 5 hour(s)* at room temperature.
assay.endpoint: inhibition at 0.1 µM

CC(O)CS(=O)(=O)Nc1ccc(F)c(C(=O)c2c[nH]c3ncc(-c4ccc(Cl)cc4)cc23)c1F (stereo not shown) ... > 30%
CC(=O)CS(=O)(=O)Nc1ccc(F)c(C(=O)c2c[nH]c3ncc(-c4ccc(Cl)cc4)cc23)c1F ... > 30%
O=C(c1c(F)ccc(NS(=O)(=O)CC(O)CO)c1F)c1c[nH]c2ncc(-c3ccc(Cl)cc3)cc12 (stereo not shown) ... > 30%

Consider now this further molecule.
Briefly, inhibition at 0.1 µM measured for O=C(c1c(F)ccc(NS(=O)(=O)CCCO)c1F)c1c[nH]c2ncc(-c3ccc(Cl)cc3)cc12 : > 50%
